value.kind: melting point

Name the reported melting point value associated with the compound Cc1cccc(NC(=O)CSc2nc(Sc3ccccc3)cc(-c3ccc(Cl)cc3)n2)c1 [Compound 2j]
150 to 154 °C

Name the reported melting point value associated with the compound CC[C@H](C)[C@H](NC(=O)CSc1nc(-c2ccccc2)cc(-c2ccc(F)cc2)n1)C(=O)OC [Compound 3b]
94 to 95 °C

Name the reported melting point value associated with the compound Cc1cccc(NC(=O)CSc2nc(-c3ccc(Cl)cc3)cc(-c3cccc4ccccc34)n2)c1 [Compound 2g]
103 to 107 °C

* * *

Assay: in vitro
Conditions: dog
Response field label takes YES when CC50 at 48 h is strictly below 50 µM and NO in all other cases.

Solved entries:
compound | classification
Cc1cccc(NC(=O)CSc2nc(-c3ccc(Cl)cc3)cc(-c3ccc(Cl)cc3)n2)c1 [Compound 2a] | NO
Cc1cccc(NC(=O)CSc2nc(-c3ccc(F)cc3)cc(-c3ccc(F)cc3)n2)c1 [Compound 2b] | NO

Is CC50 at 48 h strictly under 50 µM for the entry Cc1cccc(NC(=O)CSc2cc(-c3ccc(Cl)cc3)cc(Sc3ccccc3)n2)c1 [Compound 2n] ?
NO

Is CC50 at 48 h strictly under 50 µM for the entry Cc1cccc(NC(=O)CSc2nc(Sc3ccccc3)cc(-c3ccc(F)cc3)n2)c1 [Compound 2k] ?
YES

Is CC50 at 48 h strictly under 50 µM for the entry Cc1cccc(NC(=O)CSc2nc(-c3ccccc3)cc(-c3ccc(Cl)cc3)n2)c1 [Compound 2c] ?
NO

Is CC50 at 48 h strictly under 50 µM for the entry CC[C@H](C)[C@H](NC(=O)CSc1nc(-c2ccccc2)cc(-c2ccc(F)cc2)n1)C(=O)OC [Compound 3b] ?
NO
